These data points were gathered from ChEMBL document CHEMBL1649493.

- Experiment description: Activity of recombinant beta-lactamase RTG4 expressed in Escherichia coli TOP10 assessed as Ratio of Kcat to Km by nitrocefin hydrolysis assay relative to benzylpenicillin
- Design: scale not given: the % may be the effect or the level left
# Activity per entry
Quote the value and follow it with the unit of measurement.

Ask | Look up Activity: CO/N=C(\C(=O)N[C@@H]1C(=O)N2C(C(=O)[O-])=C(C[n+]3cccc4c3CCC4)CS[C@H]12)c1csc(N)n1
Reply | 0.03%

Ask | Look up Activity: CC(=O)OCC1=C(C(=O)O)N2C(=O)[C@@H](NC(=O)Cc3cccs3)[C@H]2SC1
Reply | 0.04%

Ask | Look up Activity: CCN1CCN(C(=O)N[C@@H](C(=O)N[C@@H]2C(=O)N3[C@@H]2SC(C)(C)[C@@H]3C(=O)O)c2ccccc2)C(=O)C1=O
Reply | 35%

More entries:
Ask | Look up Activity: CC1(C)S[C@@H]2[C@H](NC(=O)[C@H](C(=O)O)c3ccsc3)C(=O)N2[C@H]1C(=O)O
Reply | 100%

Ask | Look up Activity: CO/N=C(\C(=O)N[C@@H]1C(=O)N2C(C(=O)[O-])=C(C[N+]3(C)CCCC3)CS[C@H]12)c1csc(N)n1
Reply | 0.06%

Ask | Look up Activity: CC1(C)S[C@@H]2[C@H](NC(=O)[C@H](N)c3ccc(O)cc3)C(=O)N2[C@H]1C(=O)O
Reply | 120%

----------
- Test system: Acinetobacter baumannii
- Experiment description: Antimicrobial activity against Acinetobacter baumannii by […]
- Format: functional
# MIC per entry
The response must be a number in µg/mL with no trailing unit.

Ask | Look up MIC: CO/N=C(\C(=O)N[C@@H]1C(=O)N2C(C(=O)[O-])=C(C[n+]3cccc4c3CCC4)CS[C@H]12)c1csc(N)n1 [CEFPIROME]
Reply | 32

Ask | Look up MIC: CO/N=C(\C(=O)N[C@@H]1C(=O)N2C(C(=O)[O-])=C(C[N+]3(C)CCCC3)CS[C@H]12)c1csc(N)n1
Reply | 32

Ask | Look up MIC: C[C@@H](O)[C@H]1C(=O)N2C(C(=O)O)=C(SCCNC=N)C[C@H]12 [IMIPENEM ANHYDROUS]
Reply | 0.25

Ask | Look up MIC: CO/N=C(\C(=O)N[C@@H]1C(=O)N2C(C(=O)O)=C(COC(C)=O)CS[C@H]12)c1csc(N)n1 [CEFOTAXIME]
Reply | 16

Ask | Look up MIC: CC(C)(O/N=C(\C(=O)N[C@@H]1C(=O)N2C(C(=O)[O-])=C(C[n+]3ccccc3)CS[C@H]12)c1csc(N)n1)C(=O)O [CEFTAZIDIME]
Reply | 8

----------
- Tested on: Escherichia coli
- Experiment description: Antibacterial activity against Escherichia coli TOP10 harboring beta-lactamase RTG4 gene by Etest method
- Assay type: functional
Attribute measured: MIC (µg/mL)
The response must be a number in µg/mL with no trailing unit.

Sample records with MIC:
Ask | Look up MIC: CC(=O)OCC1=C(C(=O)O)N2C(=O)[C@@H](NC(=O)Cc3cccs3)[C@H]2SC1
Reply | 64

Ask | Look up MIC: CC(C)(O/N=C(\C(=O)N[C@@H]1C(=O)N2C(C(=O)[O-])=C(C[n+]3ccccc3)CS[C@H]12)c1csc(N)n1)C(=O)O
Reply | 1

Ask | Look up MIC: CO/N=C(\C(=O)N[C@@H]1C(=O)N2C(C(=O)[O-])=C(C[N+]3(C)CCCC3)CS[C@H]12)c1csc(N)n1
Reply | 4

More entries:
Ask | Look up MIC: CO/N=C(\C(=O)N[C@@H]1C(=O)N2C(C(=O)O)=C(COC(N)=O)CS[C@H]12)c1ccco1
Reply | 4

Ask | Look up MIC: CO/N=C(\C(=O)N[C@@H]1C(=O)N2C(C(=O)[O-])=C(C[n+]3cccc4c3CCC4)CS[C@H]12)c1csc(N)n1
Reply | 1

Ask | Look up MIC: CO/N=C(\C(=O)N[C@@H]1C(=O)N2C(C(=O)O)=C(COC(C)=O)CS[C@H]12)c1csc(N)n1
Reply | 0.25
